All figures here come from patent US20120295982A1.

assay: Phase I open-label single-dose crossover oral bioavailability / PK test of bedoradrine sulfate in healthy volunteers; assay type: in vivo, human; conditions: female, human, in vivo, iv, 300 ug, AUC0-24 h mean
Where a name gives a salt, the structure may show the parent alone.
MEASURED PARAMETER: AUC(0-t) (ng·h/mL)
Numbers only, in ng·h/mL.

Lookup: Report AUC(0-t), nothing else, for this compound: CN(C)C(=O)COc1ccc2c(c1)C[C@@H](NC[C@H](O)c1ccc(O)c(CCO)c1)CC2 [MN-221, bedoradrine sulfate]
Found: 14.9

====

test: Phase I open-label single-dose crossover oral bioavailability / PK test of bedoradrine sulfate in healthy volunteers; format: in vivo, human; conditions: male, human, in vivo, iv, 300 ug, AUC0-24 h mean
Counter-ions that a name gives are not always drawn.
MEASURED PARAMETER: AUC(0-t) (ng·h/mL)
Answers are plain numbers, in ng·h/mL.

Lookup: Tell me AUC(0-t) reported for CN(C)C(=O)COc1ccc2c(c1)C[C@@H](NC[C@H](O)c1ccc(O)c(CCO)c1)CC2 [MN-221, bedoradrine sulfate]
Found: 11.5
